These data points were gathered from PubChem BioAssay (NCI).

- System: MALME-3M melanoma
- measurement-protocol: NCI tumour cell line growth inhibition, 48 h
readout-kind: TGI (µM)
Answer format: numeric, µM implied, no suffix.

Answered cases to consult:
COc1cc(C(=O)/C=C/c2sc(Cl)nc2Cl)cc(OC)c1OC :: 3.14
C/C(=C\CO)CC/C=C(\C)CNc1c(F)c(F)c(F)c(F)c1F :: 57.2
CN(C)CCCNC1=C(Cl)C(=O)c2ccccc2C1=O :: 3.77
CC(C)=CCCc1c(C)ccc2c1C(=O)C(=O)C(C(C)C)=C2 :: 6.78
CN(C)c1ccc(-c2cc(-c3ccc(Nc4nc(Nc5ccc(Cl)cc5)nc(Nc5ccc(Cl)cc5)n4)cc3)no2)cc1 :: 36.9
CC1=C(C(=O)OCCO[N+](=O)[O-])C(c2cccc([N+](=O)[O-])c2)C(C(=O)OC(C)C)=C(C)N1 (stereo not given) :: 51.9
CC(=O)OC(C)C(=O)C1c2cccc(O)c2C(=O)c2c(O)cc(C)cc21 (stereo not given) :: 1.82
O=C(/C=C/c1ccccc1Cl)c1ccc(Cl)c(Cl)c1 :: 55.7

Query: Let me know recorded TGI for Nc1cc2nc3ccccc3sc-2cc1=O , thanks.
Result: 3.62

Query: Let me know recorded TGI for COc1cccc(-c2nc3ccccc3c(=O)[nH]2)c1 , thanks.
Result: 52.5

----------
- System: DU-145 prostate
- measurement-protocol: NCI tumour cell line growth inhibition, 48 h
Attribute: TGI

Answered cases to consult:
C/C(=C\CO)CC/C=C(\C)CNc1c(F)c(F)c(F)c(F)c1F :: > 100 µM
O=C1C=Cc2c(Br)sc(Br)c21 :: > 100 µM
O=c1n(CC2CO2)c(=O)n(CC2CO2)n1CC1CO1 (stereo unspecified) :: > 61.3 µM
COc1c2ccoc2c(/C=C/C=O)c2oc(-c3ccccc3)cc(=O)c12 :: > 100 µM
O=C(C1OC1c1ccc(Cl)cc1)C12CC3CC(CC(C3)C1)C2 (stereo unspecified) :: > 100 µM

Query: Report measured TGI on DU-145 prostate; entry: Nn1c(CCCCCCCCc2nnc(COc3ccc(Cl)cc3Cl)n2N)nnc1COc1ccc(Cl)cc1Cl
Result: > 100 µM

----------
- System: HOP-62 NSCLC
- measurement-protocol: NCI tumour cell line growth inhibition, 48 h
Where a SMILES comes first, the peptide text is derived from it. [ ]: non-standard residue; d: D form. The star is where a group is joined. Boc = CC(C)(C)OC(=O)*; Lac = C[CH](O)C(=O)O; OBn = c1ccc(CO*)cc1
readout-kind: TGI

CC(OC(=O)C(Cc1ccccc1)NC(=O)C(Cc1ccccc1)NC(=O)OC(C)(C)C)C(=O)OCc1ccccc1 (stereo not drawn) (Boc-Phe-Phe-[Lac]-OBn; configuration not given here) :: > 100 µM
CC(=O)OC1COC(n2c(=S)n(-c3ccc(C)cc3)c(=O)c3ccccc32)C(OC(C)=O)C1OC(C)=O (stereo not drawn) :: > 100 µM
COc1ccc2c(c1)C(=O)/C(=C/c1ccc(OCC(=O)Nc3nccs3)cc1)O2 :: 26 µM
C/C=C/C(C#N)(/C=C/c1ccccc1)OP1(=O)OC(c2ccccc2)C(C)N1C (stereo not drawn) :: 36.1 µM
O=C(CN1CCN(c2cc3c(cc2F)c(=O)c(C(=O)N/N=C/c2ccccc2O)cn3C2CC2)CC1)N/N=C\c1ccccc1O :: > 100 µM

Query: Report measured TGI on HOP-62 NSCLC; entry: COc1cccc(NC(=O)CC(=O)n2nc(C)c(N=Nc3ccccc3)c2C)c1
Result: > 100 µM

Query: Report measured TGI on HOP-62 NSCLC; entry: S=c1nc2sc3c(c2c(Nc2ccc(Cl)cc2)[nH]1)CCCC3
Result: > 100 µM

Query: Report measured TGI on HOP-62 NSCLC; entry: Clc1cccc(Cc2cn3cc(-c4ccccc4)nc3s2)c1Cl
Result: 47.7 µM

----------
- System: SK-MEL-28 melanoma
- measurement-protocol: NCI tumour cell line growth inhibition, 48 h
readout-kind: TGI

Clc1cccc(Cc2cn3cc(-c4ccccc4)nc3s2)c1Cl :: > 100 µM
CC(=O)OC(C)C(=O)C1c2cccc(O)c2C(=O)c2c(O)cc(C)cc21 (stereo not given) :: 2.3 µM
COC1(c2ccc(Cl)cc2)SC=C(C)n2c1noc2=O (stereo not given) :: > 100 µM
COc1ccc(/C=C\c2cc(OC)c3c(c2)OCO3)c(O)c1O :: 24.1 µM

Now let's try a different one.
Query: Let me know recorded TGI for C=C(CNCCO)[C@@H]1CC[C@]2(CO)CC[C@]3(C)[C@H](CC[C@@H]4[C@@]5(C)CCC(N)C(C)(C)[C@@H]5CC[C@]43C)[C@@H]12 (stereo not given in full) , thanks.
Result: 3.6 µM

----------
- System: SNB-19 CNS
- measurement-protocol: NCI tumour cell line growth inhibition, 48 h
readout-kind: TGI

Answered cases to consult:
COC(=O)NC(Nc1ccccn1)(C(F)(F)F)C(F)(F)F :: > 100 µM
O=c1ccn([C@@H]2C[C@H]2CO)c(=O)[nH]1 :: > 100 µM
NC1CC(=O)c2cscc21 (stereo unspecified) :: > 100 µM
CC1=CC(=O)[C@@H](O)[C@]2(C)[C@H]3[C@@]4(O)OC[C@]35[C@H]([C@@H](C)[C@H]4O)[C@@H](OC(=O)C(C)(C)CO)C(=O)O[C@@H]5C[C@@H]12 :: 0.626 µM
CCN(CC)c1ccc2cc(C(N)=O)c(=N)oc2c1 :: > 100 µM

Now let's try a different one.
Query: Let me know recorded TGI for CCN(CC)CC(C(=O)Nc1c(C)cccc1C)/C(C)=N\NC(=O)C[N+](C)(C)C (stereo unspecified) , thanks.
Result: > 100 µM

----------
- Tested on: SF-539 CNS
- measurement-protocol: NCI tumour cell line growth inhibition, 48 h
Attribute: TGI
Answer format: numeric, µM implied, no suffix.

Answered cases to consult:
CCOC(=O)C(Sc1ccccc1)c1c(OC)cc(=O)oc1/C=[N+](/[O-])c1ccc(N(C)C)cc1 (stereo not given) :: 56.9
c1ccc(C(C2=Nc3cccc4cccc(c34)N2)c2ccccc2)cc1 :: 34.2
O=C(NC(=S)Nc1ccc(Br)cc1)c1ccc2c(c1)Sc1ccccc1S2 :: 53.5

Query: Let me know recorded TGI for C=C(CNCCO)[C@@H]1CC[C@]2(CO)CC[C@]3(C)[C@H](CC[C@@H]4[C@@]5(C)CCC(N)C(C)(C)[C@@H]5CC[C@]43C)[C@@H]12 (stereo not given in full) , thanks.
Result: 3.21

Query: Let me know recorded TGI for Fc1ccc(Nc2ncnc3ccc(-c4cnc5[nH]ccc5c4)cc23)cc1Cl , thanks.
Result: 7.65

Query: Let me know recorded TGI for O=C1c2ccccc2C(=O)c2sc(Nc3cccc(Cl)c3)nc21 , thanks.
Result: 3.44

Query: Let me know recorded TGI for O=C1/C(=C/c2ccc([N+](=O)[O-])cc2)COc2ccc(O)c(O)c21 , thanks.
Result: 3.33

Query: Let me know recorded TGI for O=[N+]([O-])c1cccc2nc3ccccc3c(NCCCCNc3c4ccccc4nc4cccc([N+](=O)[O-])c34)c12 , thanks.
Result: 0.102

----------
Attribute: TGI
- System: A498 renal
- measurement-protocol: NCI tumour cell line growth inhibition, 48 h

O=C1NC(N/N=C/c2ccccc2)=N/C1=C\c1ccco1 :: > 100 µM
Cn1c2ccc([N+](=O)[O-])cc2c(=O)n1Cc1ccccc1F :: > 100 µM
O=C(Nc1ccc(F)cc1F)c1cc(I)ccc1O :: 3.31 µM
COC1(c2ccc(Cl)cc2)SC=C(C)n2c1noc2=O (centres undefined) :: > 100 µM
CC1=C(C#N)C23C(=O)c4ccccc4C(O)=C2C(=O)C=CC3(O)N1Cc1ccccc1 (centres undefined) :: > 100 µM

Query: Let me know recorded TGI for CC(=O)OC(C)C(=O)C1c2cccc(O)c2C(=O)c2c(O)cc(C)cc21 (centres undefined) , thanks.
Result: 3.68 µM

Query: Let me know recorded TGI for COc1ccccc1NC(=O)CC(=O)n1nc(C)c(N=Nc2ccccc2C(=O)O)c1C , thanks.
Result: > 100 µM

Query: Let me know recorded TGI for O[C@H]1[C@H]2c3cc4c(cc3CN3CCC(=C[C@@H]1O)[C@H]23)OCO4 , thanks.
Result: 12.8 µM

Query: Let me know recorded TGI for O=C(N/C(=C\c1cc(Cl)ccc1Cl)c1nc2[nH]c(=S)[nH]c(=O)c2[nH]1)c1ccccc1 , thanks.
Result: > 100 µM

----------
- System: OVCAR-8 ovarian
- measurement-protocol: NCI tumour cell line growth inhibition, 48 h
readout-kind: TGI

Answered cases to consult:
COc1c2ccoc2c(/C=C/C=O)c2oc(-c3ccccc3)cc(=O)c12 :: > 100 µM
CC(C)(C)c1cc(C(=O)/C=C/c2c(Cl)cccc2Cl)cc(C(C)(C)C)c1O :: > 100 µM
COc1cc(/C=C/c2cc(/C=C/c3ccc(O)c(OC)c3)n(C(=O)Nc3ccc(F)cc3)n2)ccc1O :: 4.79 µM
CC1=NN(c2nc(N)nc(/C(C#N)=C/c3ccccc3O)n2)C(C)(C)C1 :: 61.6 µM
CCCN(CCC)CCc1ccc(OC2=CCN(C)CC2)cc1 :: > 100 µM

Now let's try a different one.
Query: Let me know recorded TGI for O=c1cc(-c2cccc(O)c2)[nH]c2cc3c(cc12)OCO3 , thanks.
Result: > 29.7 µM
